Measured values drawn from patent EP2350075B1 for this set.

studyTarget: human TrkA (Homo sapiens)
Construct: histidine-tagged recombinant human TrkA, cytoplasmic domain; His tag
Sequence (P04629 440-796 limits assumed): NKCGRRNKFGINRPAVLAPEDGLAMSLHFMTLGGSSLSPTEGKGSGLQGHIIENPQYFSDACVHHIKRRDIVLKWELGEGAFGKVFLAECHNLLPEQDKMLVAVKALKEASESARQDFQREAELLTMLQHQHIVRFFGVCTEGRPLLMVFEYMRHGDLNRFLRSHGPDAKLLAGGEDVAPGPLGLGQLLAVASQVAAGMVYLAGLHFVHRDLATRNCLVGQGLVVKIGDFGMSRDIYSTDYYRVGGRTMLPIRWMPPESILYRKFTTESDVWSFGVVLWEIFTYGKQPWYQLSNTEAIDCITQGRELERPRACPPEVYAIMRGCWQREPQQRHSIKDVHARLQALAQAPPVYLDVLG
assayName: TrkA ELISA assay
testConditions: 2.5 nM TrkA, 500 µM ATP, 25 minutes at ambient temperature; read-out: TrkA Elisa Enzyme IC50
reportedProperty: IC50 (nM)
Numbers only, in nM.

Answered cases to consult:
molecule	measureUnit	IC50
Cn1nc(C(=O)Nc2cnc3ccc(N4CCC[C@@H]4c4cc(F)ccc4F)nn23)ccc1=O [Example 57]	nM	2.3
O=C(Nc1ccc(Cl)cc1Cl)Nc1cnc2ccc(N3CCC[C@@H]3c3cc(F)ccc3F)nn12 [Example 7]	nM	39.4
COc1cc(NC(=O)Nc2cnc3ccc(N4CCC[C@@H]4c4cc(F)ccc4F)nn23)cc(OC)c1OC [Example 32]	nM	176
N#Cc1ccc(NC(=O)Nc2cnc3ccc(N4CCC[C@@H]4c4cc(F)ccc4F)nn23)cc1 [Example 6]	nM	10.7
N#Cc1cccc(NC(=O)Nc2cnc3ccc(N4CCC[C@@H]4c4cc(F)ccc4F)nn23)c1 [Example 5]	nM	74.2
Cn1cc(C(=O)Nc2cnc3ccc(N4CCC[C@@H]4c4cc(F)ccc4F)nn23)ccc1=O [Example 56]	nM	10.2
O=C(Nc1cccc(C(F)(F)F)c1)Nc1cnc2ccc(N3CCC[C@@H]3c3cc(F)ccc3F)nn12 [Example 8]	nM	508
CS(=O)(=O)Nc1ccc(C(=O)Nc2cnc3ccc(N4CCC[C@@H]4c4cc(F)ccc4F)nn23)cc1 [Example 4]	nM	2.1
CC(C)(C)OC(=O)N1CCN(C(=O)Nc2cnc3ccc(N4CCC[C@@H]4c4cc(F)ccc4F)nn23)CC1(C)C [Example 48]	nM	8.3
Cc1noc(C)c1NC(=O)Nc1cnc2ccc(N3CCC[C@@H]3c3cc(F)ccc3F)nn12 [Example 33]	nM	901

Could you tell me IC50 for each of these molecules? They are listed below.
1. O=C(Nc1cnc2ccc(N3CCCCC3c3cccc(F)c3)nn12)N1CC(O)C1 (stereo not drawn) [Example 43]
2. COc1ccc(NC(=O)Nc2cnc3ccc(N4CCC[C@@H]4c4cc(F)ccc4F)nn23)cc1 [Example 30]

[216, 5.5]
